As shown below, each of these sequences has a reported shrunken log2 fold change value.
- Tested on: Escherichia coli TOP10
- Measurement description: shrunken log2 fold change of peptide-encoding DNA abundance (4.5 h post-induction vs induction); higher = less antimicrobial activity (less host growth inhibition)
- Experimental conditions: time post-induction: 4.5 h; library: site-saturation at positions 5, 18, 19, 20
API note: the answer field is a bare number with no unit suffix.

Below are worked cases with known answers.
[
  {
    "Sequence text": "RRIRSRPPRLPRPRPRPKTTPRP",
    "shrunken log2 fold change": 0.103
  },
  {
    "Sequence text": "RRIRIRPPRLPRPRPRPVFLPRP",
    "shrunken log2 fold change": -0.51
  },
  {
    "Sequence text": "RRIRWRPPRLPRPRPRPTTYPRP",
    "shrunken log2 fold change": -0.187
  }
]

Which shrunken log2 fold change value belongs to RRIRARPPRLPRPRPRPLDRPRP ?
-0.233

Which shrunken log2 fold change value belongs to RRIRRRPPRLPRPRPRPCCNPRP ?
-0.029

Which shrunken log2 fold change value belongs to RRIRMRPPRLPRPRPRPQCWPRP ?
0.14

Which shrunken log2 fold change value belongs to RRIRMRPPRLPRPRPRPIPMPRP ?
0.414

Which shrunken log2 fold change value belongs to RRIRYRPPRLPRPRPRPNDMPRP ?
-1.16

Which shrunken log2 fold change value belongs to RRIRKRPPRLPRPRPRPRAGPRP ?
0.48

Which shrunken log2 fold change value belongs to RRIRCRPPRLPRPRPRPNMNPRP ?
-0.88

Which shrunken log2 fold change value belongs to RRIRSRPPRLPRPRPRPGEVPRP ?
0.223

Which shrunken log2 fold change value belongs to RRIRMRPPRLPRPRPRPHDCPRP ?
0.0419

----------
- Tested on: Escherichia coli TOP10
- Measurement description: shrunken log2 fold change of peptide-encoding DNA abundance (4.5 h post-induction vs induction); higher = less antimicrobial activity (less host growth inhibition)
- Experimental conditions: time post-induction: 4.5 h; library: site-saturation at positions 5, 18, 19, 20
Each entry gets not met if its shrunken log2 fold change stays under 0.01, and met if its shrunken log2 fold change is 0.01 or above.

Record excerpt, results attached:
[
  {
    "Sequence text": "RRIRVRPPRLPRPRPRPGLQPRP",
    "System tested": "Escherichia coli TOP10",
    "Qualitative label": "met"
  },
  {
    "Sequence text": "RRIRSRPPRLPRPRPRPWPYPRP",
    "System tested": "Escherichia coli TOP10",
    "Qualitative label": "not met"
  },
  {
    "Sequence text": "RRIRFRPPRLPRPRPRPWQWPRP",
    "System tested": "Escherichia coli TOP10",
    "Qualitative label": "not met"
  }
]

Quick check, shrunken log2 fold change >= 0.01? RRIRTRPPRLPRPRPRPLSLPRP
not met

Quick check, shrunken log2 fold change >= 0.01? RRIRHRPPRLPRPRPRPPNWPRP
met

----------
- Test system: Escherichia coli TOP10
- Measurement description: shrunken log2 fold change of peptide-encoding DNA abundance (4.5 h post-induction vs induction); higher = less antimicrobial activity (less host growth inhibition)
- Experimental conditions: time post-induction: 4.5 h; library: site-saturation at positions 5, 18, 19, 20
Recorded metric: shrunken log2 fold change
API note: the answer field is a bare number with no unit suffix.

[
  {
    "Sequence text": "RRIRCRPPRLPRPRPRPSHQPRP",
    "shrunken log2 fold change": -1.04
  }
]

Which shrunken log2 fold change value belongs to RRIRERPPRLPRPRPRPYYCPRP ?
-0.913

Which shrunken log2 fold change value belongs to RRIRTRPPRLPRPRPRPHPQPRP ?
-0.116

Which shrunken log2 fold change value belongs to RRIRNRPPRLPRPRPRPIYKPRP ?
-0.414

----------
- Tested on: Escherichia coli TOP10
- Measurement description: shrunken log2 fold change of peptide-encoding DNA abundance (4.5 h post-induction vs induction); higher = less antimicrobial activity (less host growth inhibition)
- Experimental conditions: time post-induction: 4.5 h; library: site-saturation at positions 5, 18, 19, 20
Output schema: class label derived from shrunken log2 fold change. Mapping: label 0: < -0.1; label 1: ≥ -0.1 and < 0.003; label 2: ≥ 0.003

[
  {
    "Sequence text": "RRIRFRPPRLPRPRPRPNHQPRP",
    "System tested": "Escherichia coli TOP10",
    "Qualitative label": "label 0"
  },
  {
    "Sequence text": "RRIRCRPPRLPRPRPRPEMSPRP",
    "System tested": "Escherichia coli TOP10",
    "Qualitative label": "label 0"
  },
  {
    "Sequence text": "RRIRERPPRLPRPRPRPKSDPRP",
    "System tested": "Escherichia coli TOP10",
    "Qualitative label": "label 1"
  },
  {
    "Sequence text": "RRIRDRPPRLPRPRPRPGLMPRP",
    "System tested": "Escherichia coli TOP10",
    "Qualitative label": "label 0"
  },
  {
    "Sequence text": "RRIRTRPPRLPRPRPRPGMVPRP",
    "System tested": "Escherichia coli TOP10",
    "Qualitative label": "label 2"
  },
  {
    "Sequence text": "RRIRLRPPRLPRPRPRPTDPPRP",
    "System tested": "Escherichia coli TOP10",
    "Qualitative label": "label 2"
  }
]

Given RRIRPRPPRLPRPRPRPMGKPRP , name the class its shrunken log2 fold change places it in.
label 1

Given RRIRRRPPRLPRPRPRPGHFPRP , name the class its shrunken log2 fold change places it in.
label 0

Given RRIRRRPPRLPRPRPRPTVPPRP , name the class its shrunken log2 fold change places it in.
label 2

Given RRIRHRPPRLPRPRPRPSENPRP , name the class its shrunken log2 fold change places it in.
label 1

Given RRIRFRPPRLPRPRPRPMSRPRP , name the class its shrunken log2 fold change places it in.
label 2

Given RRIRHRPPRLPRPRPRPKCMPRP , name the class its shrunken log2 fold change places it in.
label 0

Given RRIRNRPPRLPRPRPRPRWGPRP , name the class its shrunken log2 fold change places it in.
label 1

Given RRIRPRPPRLPRPRPRPCYNPRP , name the class its shrunken log2 fold change places it in.
label 0

----------
- Tested on: Escherichia coli TOP10
- Measurement description: shrunken log2 fold change of peptide-encoding DNA abundance (4.5 h post-induction vs induction); higher = less antimicrobial activity (less host growth inhibition)
- Experimental conditions: time post-induction: 4.5 h; library: site-saturation at positions 5, 18, 19, 20
Each entry gets Not fulfilled if its shrunken log2 fold change stays under -0.007, and Fulfilled if its shrunken log2 fold change is -0.007 or above.

Record excerpt, results attached:
[
  {
    "Sequence text": "RRIRCRPPRLPRPRPRPMTSPRP",
    "System tested": "Escherichia coli TOP10",
    "Qualitative label": "Not fulfilled"
  },
  {
    "Sequence text": "RRIRCRPPRLPRPRPRPFFNPRP",
    "System tested": "Escherichia coli TOP10",
    "Qualitative label": "Not fulfilled"
  },
  {
    "Sequence text": "RRIRVRPPRLPRPRPRPDTIPRP",
    "System tested": "Escherichia coli TOP10",
    "Qualitative label": "Fulfilled"
  },
  {
    "Sequence text": "RRIRKRPPRLPRPRPRPDIWPRP",
    "System tested": "Escherichia coli TOP10",
    "Qualitative label": "Fulfilled"
  },
  {
    "Sequence text": "RRIRRRPPRLPRPRPRPGQFPRP",
    "System tested": "Escherichia coli TOP10",
    "Qualitative label": "Fulfilled"
  },
  {
    "Sequence text": "RRIRNRPPRLPRPRPRPVDDPRP",
    "System tested": "Escherichia coli TOP10",
    "Qualitative label": "Fulfilled"
  },
  {
    "Sequence text": "RRIRDRPPRLPRPRPRPYIEPRP",
    "System tested": "Escherichia coli TOP10",
    "Qualitative label": "Not fulfilled"
  },
  {
    "Sequence text": "RRIRKRPPRLPRPRPRPAPQPRP",
    "System tested": "Escherichia coli TOP10",
    "Qualitative label": "Fulfilled"
  }
]

Quick check, shrunken log2 fold change >= -0.007? RRIRRRPPRLPRPRPRPGVTPRP
Fulfilled

----------
- Tested on: Escherichia coli TOP10;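 further: peptides expressed intracellularly from a pBAD plasmid library in pooled LB shake-flask culture, induced with 0.3% L-arabinose, DNA abundance read by NGS, three biological replicates, DESeq2 with apeglm shrinkage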
- Measurement description: shrunken log2 fold change of peptide-encoding DNA abundance (4.5 h post-induction vs induction); higher = less antimicrobial activity (less host growth inhibition)
- Experimental conditions: time post-induction: 4.5 h; library: site-saturation at positions 5, 18, 19, 20
Output schema: class label derived from shrunken log2 fold change. Mapping: lower: < -0.06; middle: ≥ -0.06 and < 0.2; upper: ≥ 0.2

Record excerpt, results attached:
[
  {
    "Sequence text": "RRIRHRPPRLPRPRPRPALGPRP",
    "Qualitative label": "middle"
  },
  {
    "Sequence text": "RRIRFRPPRLPRPRPRPQAGPRP",
    "Qualitative label": "middle"
  },
  {
    "Sequence text": "RRIRTRPPRLPRPRPRPLRLPRP",
    "Qualitative label": "upper"
  },
  {
    "Sequence text": "RRIRFRPPRLPRPRPRPPFFPRP",
    "Qualitative label": "upper"
  },
  {
    "Sequence text": "RRIRSRPPRLPRPRPRPQYRPRP",
    "Qualitative label": "lower"
  }
]

Given RRIRLRPPRLPRPRPRPHTYPRP , name the class its shrunken log2 fold change places it in.
lower

Given RRIRLRPPRLPRPRPRPCQAPRP , name the class its shrunken log2 fold change places it in.
middle

Given RRIRARPPRLPRPRPRPKFCPRP , name the class its shrunken log2 fold change places it in.
upper

Given RRIRPRPPRLPRPRPRPACWPRP , name the class its shrunken log2 fold change places it in.
upper

Given RRIRCRPPRLPRPRPRPYVGPRP , name the class its shrunken log2 fold change places it in.
lower
